tested on: FLT4 (human), P35916 [Q890H]; test: radiometric filter-binding kinase assay, Kinase HotSpot; settings: compound 0.5 µM; ATP 10 µM
Sequence (P35916 whole entry, looked up, stated change not applied): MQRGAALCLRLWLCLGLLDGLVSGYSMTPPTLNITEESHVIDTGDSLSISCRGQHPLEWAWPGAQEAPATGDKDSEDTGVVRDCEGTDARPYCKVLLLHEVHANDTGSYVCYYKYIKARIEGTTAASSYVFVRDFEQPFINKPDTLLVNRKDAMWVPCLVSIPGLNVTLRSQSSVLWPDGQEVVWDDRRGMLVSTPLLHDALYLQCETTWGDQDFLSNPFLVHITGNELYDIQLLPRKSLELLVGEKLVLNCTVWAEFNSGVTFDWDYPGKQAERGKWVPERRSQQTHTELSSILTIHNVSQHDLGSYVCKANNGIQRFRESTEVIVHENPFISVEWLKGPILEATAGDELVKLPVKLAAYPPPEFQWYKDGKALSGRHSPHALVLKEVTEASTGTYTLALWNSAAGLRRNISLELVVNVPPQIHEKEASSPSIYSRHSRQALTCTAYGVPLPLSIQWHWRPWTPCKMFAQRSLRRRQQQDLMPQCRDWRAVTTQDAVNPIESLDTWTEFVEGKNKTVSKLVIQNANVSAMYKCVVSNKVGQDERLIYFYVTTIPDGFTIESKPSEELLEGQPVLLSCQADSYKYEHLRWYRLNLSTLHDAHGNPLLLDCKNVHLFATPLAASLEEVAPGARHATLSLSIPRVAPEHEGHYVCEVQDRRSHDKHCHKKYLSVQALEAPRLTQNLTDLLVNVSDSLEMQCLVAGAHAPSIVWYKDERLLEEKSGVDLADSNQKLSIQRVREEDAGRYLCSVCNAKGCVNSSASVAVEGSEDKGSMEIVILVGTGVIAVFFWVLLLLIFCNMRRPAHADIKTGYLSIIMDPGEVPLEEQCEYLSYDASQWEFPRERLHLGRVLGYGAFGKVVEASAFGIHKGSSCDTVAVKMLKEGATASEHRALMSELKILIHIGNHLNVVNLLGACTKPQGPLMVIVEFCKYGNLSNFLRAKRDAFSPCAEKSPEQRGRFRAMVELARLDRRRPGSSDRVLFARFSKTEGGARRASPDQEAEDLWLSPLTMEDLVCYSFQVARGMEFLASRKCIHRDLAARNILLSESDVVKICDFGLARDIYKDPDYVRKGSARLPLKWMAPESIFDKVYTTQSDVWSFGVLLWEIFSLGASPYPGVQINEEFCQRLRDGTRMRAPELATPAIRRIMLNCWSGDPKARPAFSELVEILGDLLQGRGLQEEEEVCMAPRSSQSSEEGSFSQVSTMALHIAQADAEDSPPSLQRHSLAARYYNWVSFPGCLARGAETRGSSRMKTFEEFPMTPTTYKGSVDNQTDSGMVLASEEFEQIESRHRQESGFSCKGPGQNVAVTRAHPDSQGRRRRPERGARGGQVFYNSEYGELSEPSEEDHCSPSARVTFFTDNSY
residual activity by entry:
Quantity Kind: residual activity (%)

- Compound: "COc1ccc(Cl)cc1NC(=O)Nc1cc(C)nc2ccccc12"
  Quantity Kind: "residual activity"
  Unit Annotation: "%"
  Measured: 100
- Compound: "COc1cc2ncnc(Nc3ccc(Oc4ccccc4)cc3)c2cc1OC"
  Quantity Kind: "residual activity"
  Unit Annotation: "%"
  Measured: 62.5
- Compound: "COc1ccc2c(c1)c(C1=C(c3c[nH]c4ccccc34)C(=O)NC1=O)cn2CCCN(C)C"
  Quantity Kind: "residual activity"
  Unit Annotation: "%"
  Measured: 23.6
- Compound: "O=C1Nc2ccc(Br)cc2/C1=C\\c1cc2c([nH]1)CCCC2"
  Quantity Kind: "residual activity"
  Unit Annotation: "%"
  Measured: 56.1
- Compound: "COc1cc(Nc2c(C#N)cnc3cc(OCCCN4CCN(C)CC4)c(OC)cc23)c(Cl)cc1Cl"
  Quantity Kind: "residual activity"
  Unit Annotation: "%"
  Measured: 44.1
- Compound: "COc1cc2c(Nc3ccc(Br)cc3F)ncnc2cc1OCC1CCN(C)CC1"
  Quantity Kind: "residual activity"
  Unit Annotation: "%"
  Measured: 16.1
- Compound: "COc1ccc(S(=O)(=O)N(CCO)c2ccccc2CN(C)C/C=C/c2ccc(Cl)cc2)cc1"
  Quantity Kind: "residual activity"
  Unit Annotation: "%"
  Measured: 91
- Compound: "N/C(=N\\N=C/c1ccc(-c2cccc([N+](=O)[O-])c2)o1)N[N+](=O)[O-]"
  Quantity Kind: "residual activity"
  Unit Annotation: "%"
  Measured: 86.3
- Compound: "FC(F)(F)c1ccc(/C=C/c2nc(COc3ccc(CCCCn4ccnn4)cc3)co2)cc1"
  Quantity Kind: "residual activity"
  Unit Annotation: "%"
  Measured: 98
- Compound: "CN(C)CCCn1cc(C2=C(c3c[nH]c4ccccc34)C(=O)NC2=O)c2ccccc21"
  Quantity Kind: "residual activity"
  Unit Annotation: "%"
  Measured: 30.6
- Compound: "O=C(O)/C=C/c1cc(Br)c(Br)c(Br)c1Br"
  Quantity Kind: "residual activity"
  Unit Annotation: "%"
  Measured: 98.2
- Compound: "CO[C@@H]1[C@H](N(C)C(=O)c2ccccc2)C[C@H]2O[C@]1(C)n1c3ccccc3c3c4c(c5c6ccccc6n2c5c31)C(=O)NC4"
  Quantity Kind: "residual activity"
  Unit Annotation: "%"
  Measured: 10.9
- Compound: "CC(=O)O/N=C1\\C(=C2\\C(=O)Nc3cc(Br)ccc32)Nc2ccccc21"
  Quantity Kind: "residual activity"
  Unit Annotation: "%"
  Measured: 93.7
- Compound: "O=c1c2ccccc2[nH]c(=S)n1CCN1CCC(=C(c2ccc(F)cc2)c2ccc(F)cc2)CC1"
  Quantity Kind: "residual activity"
  Unit Annotation: "%"
  Measured: 107
- Compound: "Cc1ccc(NC(=O)c2ccc(CN3CCN(C)CC3)cc2)cc1Nc1nc(-c2cccnc2)cs1"
  Quantity Kind: "residual activity"
  Unit Annotation: "%"
  Measured: 100
- Compound: "c1ccc2c(-c3ccncc3)c[nH]c2c1"
  Quantity Kind: "residual activity"
  Unit Annotation: "%"
  Measured: 119
- Compound: "CNC(=O)c1cc(Oc2ccc(NC(=O)Nc3ccc(Cl)c(C(F)(F)F)c3)cc2)ccn1"
  Quantity Kind: "residual activity"
  Unit Annotation: "%"
  Measured: 43
- Compound: "COc1ccc(C(=O)Nc2sc3c(c2C(N)=O)CCCC3)cc1OC"
  Quantity Kind: "residual activity"
  Unit Annotation: "%"
  Measured: 110
- Compound: "O=C1Cc2c([nH]c3ccc([N+](=O)[O-])cc23)-c2ccccc2N1"
  Quantity Kind: "residual activity"
  Unit Annotation: "%"
  Measured: 77.8
- Compound: "N#CC(C#N)=C(N)/C(C#N)=C/c1ccc(O)cc1"
  Quantity Kind: "residual activity"
  Unit Annotation: "%"
  Measured: 95.9
- Compound: "O=c1c(-c2ccc(F)cc2)c(-c2ccncc2)[nH]n1-c1ccc(Cl)cc1"
  Quantity Kind: "residual activity"
  Unit Annotation: "%"
  Measured: 91.5
- Compound: "COc1ccc(COc2ccc(Cc3cnc(N)nc3N)cc2OC)cc1"
  Quantity Kind: "residual activity"
  Unit Annotation: "%"
  Measured: 105
- Compound: "c1ccc(-c2n[nH]cc2-c2ccnc3ccccc23)nc1"
  Quantity Kind: "residual activity"
  Unit Annotation: "%"
  Measured: 92.2
- Compound: "CC(=O)c1ccc(N2CCOCC2)cc1O"
  Quantity Kind: "residual activity"
  Unit Annotation: "%"
  Measured: 112
- Compound: "O=C(CCCc1ccc(-c2ccccc2F)cc1)Nc1ccc(O)cc1"
  Quantity Kind: "residual activity"
  Unit Annotation: "%"
  Measured: 99.3
- Compound: "O=C1NC(=O)C(c2c[nH]c3ccccc23)=C1c1c[nH]c2ccccc12"
  Quantity Kind: "residual activity"
  Unit Annotation: "%"
  Measured: 35.2
- Compound: "CCCCc1c(-c2ccc(O)cc2)[nH]c2nccnc12"
  Quantity Kind: "residual activity"
  Unit Annotation: "%"
  Measured: 77.4
- Compound: "CC#CC(=O)Nc1cc2c(Nc3ccc(F)c(Cl)c3)ncnc2cn1"
  Quantity Kind: "residual activity"
  Unit Annotation: "%"
  Measured: 92.8
- Compound: "Cc1ccc(S(=O)(=O)/C=C/C#N)cc1"
  Quantity Kind: "residual activity"
  Unit Annotation: "%"
  Measured: 96.5
- Compound: "O=C1NC(=O)/C(=C/c2ccc3c(c2)OC(F)(F)O3)S1"
  Quantity Kind: "residual activity"
  Unit Annotation: "%"
  Measured: 107
- Compound: "O=C1NC(=O)C(c2cn(CCCn3ccnc3)c3ccccc23)=C1Nc1ccccc1"
  Quantity Kind: "residual activity"
  Unit Annotation: "%"
  Measured: 95.8
- Compound: "CCN1/C(=C/C(C)=O)Sc2ccc(OC)cc21"
  Quantity Kind: "residual activity"
  Unit Annotation: "%"
  Measured: 99.7
- Compound: "O=C1NC(=O)c2cc(Nc3ccc(F)cc3)c(Nc3ccc(F)cc3)cc21"
  Quantity Kind: "residual activity"
  Unit Annotation: "%"
  Measured: 102
- Compound: "CC[n+]1c(/C=C/N(C)c2ccccc2)n(-c2ccccc2)c2ccc(-c3nc4ccccc4s3)cc21"
  Quantity Kind: "residual activity"
  Unit Annotation: "%"
  Measured: 90.9
- Compound: "CCOc1cc2ncnc(Nc3cccc(Br)c3)c2cc1OCC"
  Quantity Kind: "residual activity"
  Unit Annotation: "%"
  Measured: 88.1
- Compound: "C[C@@H]1CCN(C(=O)CC#N)C[C@@H]1N(C)c1ncnc2[nH]ccc12"
  Quantity Kind: "residual activity"
  Unit Annotation: "%"
  Measured: 97.5
- Compound: "CN(C)c1ccc(/C=C2\\C(=O)Nc3ccccc32)cc1"
  Quantity Kind: "residual activity"
  Unit Annotation: "%"
  Measured: 98.8
- Compound: "O=C1c2ccccc2-c2nc3nnnn3nc21"
  Quantity Kind: "residual activity"
  Unit Annotation: "%"
  Measured: 5.79
- Compound: "O=C1Nc2ccccc2/C1=C1/Nc2ccccc2/C1=N\\OCCC(O)CO (stereo not drawn)"
  Quantity Kind: "residual activity"
  Unit Annotation: "%"
  Measured: 22.3
- Compound: "c1ccc(-c2cnc(Nc3ccc(OCCN4CCCC4)cc3)s2)cc1"
  Quantity Kind: "residual activity"
  Unit Annotation: "%"
  Measured: 64.4
- Compound: "CC(C)n1cnc2c(Nc3cccc(Cl)c3)nc(NCCO)nc21"
  Quantity Kind: "residual activity"
  Unit Annotation: "%"
  Measured: 92.6
- Compound: "CC(C)N(CCC(=O)c1ccc2ccccc2c1)Cc1ccccc1"
  Quantity Kind: "residual activity"
  Unit Annotation: "%"
  Measured: 94
- Compound: "COc1ccc(-c2cnc3c(-c4ccsc4)cnn3c2)cc1"
  Quantity Kind: "residual activity"
  Unit Annotation: "%"
  Measured: 94.1

====

residual activity by entry:
biological target: PRKCB1 (human) (UniProt P05771); experiment: radiometric filter-binding kinase assay, Kinase HotSpot; conditions: compound 0.5 µM; ATP 10 µM
Sequence (P05771 whole entry, looked up): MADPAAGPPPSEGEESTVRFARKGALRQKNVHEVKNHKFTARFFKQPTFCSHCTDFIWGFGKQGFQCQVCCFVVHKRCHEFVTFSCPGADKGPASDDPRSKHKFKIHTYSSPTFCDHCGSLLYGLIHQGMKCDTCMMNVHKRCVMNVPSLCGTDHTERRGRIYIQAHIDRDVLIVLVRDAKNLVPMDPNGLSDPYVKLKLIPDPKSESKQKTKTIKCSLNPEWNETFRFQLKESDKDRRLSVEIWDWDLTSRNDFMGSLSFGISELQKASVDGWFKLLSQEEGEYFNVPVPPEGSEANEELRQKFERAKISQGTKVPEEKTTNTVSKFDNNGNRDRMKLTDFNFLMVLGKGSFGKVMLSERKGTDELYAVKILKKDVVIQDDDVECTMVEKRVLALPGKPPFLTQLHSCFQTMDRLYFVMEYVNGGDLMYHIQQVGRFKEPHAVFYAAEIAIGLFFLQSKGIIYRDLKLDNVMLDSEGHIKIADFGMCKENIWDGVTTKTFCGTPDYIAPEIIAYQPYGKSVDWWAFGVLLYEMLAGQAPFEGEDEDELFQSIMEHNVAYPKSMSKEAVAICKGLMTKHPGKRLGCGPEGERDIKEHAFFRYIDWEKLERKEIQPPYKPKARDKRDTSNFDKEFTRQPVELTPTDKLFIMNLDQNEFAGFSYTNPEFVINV

- Smiles String: "CC(C)(C)c1cc(C=C(C#N)C#N)cc(Br)c1O"
  Unit Annotation: "%"
  residual activity: 102
- Smiles String: "Cn1c2ccccc2c2c3c(c4c5ccccc5n(CCC#N)c4c21)CNC3=O"
  Unit Annotation: "%"
  residual activity: 18.7
- Smiles String: "CCCCc1c(-c2ccc(OC)cc2)[nH]c2nccnc12"
  Unit Annotation: "%"
  residual activity: 99.4
- Smiles String: "Cc1cccc(-c2nc(C(C)(C)C)[nH]c2-c2ccc3c(c2)OCO3)n1"
  Unit Annotation: "%"
  residual activity: 82.5
- Smiles String: "Cc1cncc2cccc(S(=O)(=O)N3CCCN(C(=O)CN)C[C@H]3C)c12"
  Unit Annotation: "%"
  residual activity: 99.4
- Smiles String: "CN(C)c1ccc(/C=C2\\C(=O)Nc3ccccc32)cc1"
  Unit Annotation: "%"
  residual activity: 96.1
- Smiles String: "CN(C)CCCn1cc(C2=C(c3c[nH]c4ccccc34)C(=O)NC2=O)c2ccccc21"
  Unit Annotation: "%"
  residual activity: 3.24
- Smiles String: "COc1ccc(C(=O)Nc2sc3c(c2C(N)=O)CCCC3)cc1OC"
  Unit Annotation: "%"
  residual activity: 91.8
- Smiles String: "O=C1Nc2ccc(Br)cc2/C1=C\\c1cc2c([nH]1)CCCC2"
  Unit Annotation: "%"
  residual activity: 97.4
- Smiles String: "c1ccc2c(-c3ccncc3)c[nH]c2c1"
  Unit Annotation: "%"
  residual activity: 95.1
- Smiles String: "O=C1NC(=O)c2c1c1c3ccccc3[nH]c1n1cncc21"
  Unit Annotation: "%"
  residual activity: 95
